Origin of values: the RNAGym collection of RNA variant scans (doi:10.1126/science.aae0568)

B1: tRNA (parent)
chain: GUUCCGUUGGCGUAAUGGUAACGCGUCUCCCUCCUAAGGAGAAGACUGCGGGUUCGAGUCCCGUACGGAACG

- Variants of: B1
- assay-remarks: yeast fitness relative to wild type (ratio to wild type); higher = fitter; tRNA-Arg(CCU), competitive growth, 37 C, YPD
Variants at the floor of the assay were thinned out.
// reported yeast fitness for each item listed

macromolecule-sequence | rel | yeast fitness
GUUCCGUUGGCGUAAUGGUAACGCGUCUCCCUCCUAAGGAGCAGACUGCGAGUUCGAGUCCCGUACGGACCG [A42C G51A A70C] | = | 0.578
GUUCCGUUGGCGUAAUGGCAACGCGUCUCCCUCCUAAGGAGAAGACUGAGGGUUCGCGUCCCGUACGGAACG [U19C C49A A57C] | = | 0.599
GAUCCGUUGGCGUAAUGGUAACGCGUCUCCCUCCUAAGGAGAAGACUGCGGGUUCGAGUCCCGUACGGUACG [U2A A69U] | = | 0.874
GUUCCGUUGGAGUAAUGGUACCGCCUCUCCCUCAUUAGGAGAAAACUGCGGGUUCGAGUCCCGUACGGAACG [C11A A21C G25C C34A A36U G44A] | ≤ | 0.5
GUUCUGUUGGCGUAAUGGUAUCGCGUCUCCCUCCUAAGGUGAAGACUGCGGGUUCGAGUCCCGUACGGAACG [C5U A21U A40U] | = | 0.57
GUUCCGUUGGCGUAAUGGUAAUGCGUCUCCCUCCUAAGGAGAAGACUGCGGGUUCGAGUCCUGUCCGGAACG [C22U C62U A65C] | = | 0.691
GUUCCGUUGGCAUAAUGGUAACGCGUCUCCCUCCUAAGGAGAAGACUGCGGGUUCGAGUCGAGUACGGAGCG [G12A C61G C62A A70G] | ≤ | 0.5
GUUCCGUUGGCGUAAUGGAAACGUGUCUCCCUCCUAAAGAGAAGACUGCGGGUCUGAGUCCCGUAAGGAACG [U19A C24U G38A U54C C55U C66A] | ≤ | 0.5
GUUCCGUUGGCGUAGUGGUCACGCGUCUCCCUCAUAAGGAGAAGACUGCGGGUUCGAGUCCCGUACGGAACG [A15G A20C C34A] | ≤ | 0.5
GUUCCGUUGGCGAAAUGGUAAUGCGUCUCCCUCCUAGGGAGAAGACUGCGGGUUCGAGUCCCGUACGGAACG [U13A C22U A37G] | = | 0.533
GUUCCGUUGGCGUAAUGGUAACGCGUCUCACUCCUAAGGAGAAGACUGCGAGUUCGAGUCCCGUACGGAACG [C30A G51A] | = | 0.774
GUUCCGUUGGCGUGAUCGUAACGCGUCUCCCUCCUCAGGAGAAGACUAGGAGUUCGAGUCCCGUACGGAACG [A14G G17C A36C G48A C49G G51A] | ≤ | 0.5
GUUCCGUUGGCGUAAAGGUAACACGUCUCCCUACUAAGGAGAAGACUGCGGGUUCGAGUCCCGUACGGAACG [U16A G23A C33A] | = | 0.644
GUUCCGUCGGCAUAAUGGUAACGCGUCUCCCUCCUAAGGAGAAGUCUACGGGUUCGAGUCCCGUACGGAACG [U8C G12A A45U G48A] | ≤ | 0.5
GUGCCGUUGGCGUAGUGGUAACGGGUCUCCCUCCUAAGGAGAAGACUGCAGGUUUGAGUCCCGUACGGAACG [U3G A15G C24G G50A C55U] | = | 0.613
GAUGCGUUGGCGUAAUGGUAACGCGUCUCCCUCCUAAGGAGAAGACUGCGGGUUAGAGUCCCGUACGGAACG [U2A C4G C55A] | = | 0.57
GUUACGUUCGGGUAAUGGUAACGCGUCUCCCUCCUAAGGAGAAGCCUGCGGGUUCGAGUCCCGUACGGAACG [C4A G9C C11G A45C] | = | 0.508
GUUCCGUUGGCGUUAUGGUAACGCGUCUCUCUCCUAAGGAGAAGACUGCGGGUUCGACUACCGUACGGAACG [A14U C30U G58C C60A] | ≤ | 0.5
GUUGCGUUGGCGUAAUGGUAUCGCGUCACGCUCCUAAGGAGAAGACUGCGGGUUCGAGUCCCGUACGGAACG [C4G A21U U28A C30G] | ≤ | 0.5
GUUCCGUUGGCGUAAUGGUAACGCGUCUUCCUCCUAAGGAGAAGACUGCGGGUUCGAGUCCCGUACGACACG [C29U G68A A69C] | ≤ | 0.5
GUUCGGUUGGCGUAAUGGUAACGCAUCUCCCUCCUAAGGAGAAGACUACGGGUUCGAGUCGCGUACGGAACG [C5G G25A G48A C61G] | ≤ | 0.5
GUUCUGUUGGCGUAAUGGUAACGCGUCUCCCUCCUAAGGAGAAGAUUGCGGGUUCGAGUGCCGUACGGAACG [C5U C46U C60G] | ≤ | 0.5
